Here, each record is paired with measured IC50 data.
Target desc: T1, recombinant hIL1RAP Domain1+2+3 (aa21-367) (human, UniProt Q9NPH3 21-367)
T1 construct: Numbering on Uniprot Q9NPH3
T1 sequence (looked up): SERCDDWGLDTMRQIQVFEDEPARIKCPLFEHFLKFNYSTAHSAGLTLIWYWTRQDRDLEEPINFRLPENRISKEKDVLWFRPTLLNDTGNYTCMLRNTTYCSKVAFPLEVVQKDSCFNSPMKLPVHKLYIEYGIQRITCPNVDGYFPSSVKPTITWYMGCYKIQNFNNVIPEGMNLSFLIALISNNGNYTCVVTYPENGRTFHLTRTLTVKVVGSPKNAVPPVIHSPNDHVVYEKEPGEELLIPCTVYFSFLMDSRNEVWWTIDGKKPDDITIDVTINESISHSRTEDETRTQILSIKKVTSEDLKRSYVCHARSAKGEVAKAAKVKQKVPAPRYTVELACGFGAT
Experiment summary: binding ELISA, coated recombinant hIL1RAP aa21-367
Provide only the numeric value, understood in µg/mL.

h48D2 VH5:VL1 (antibody, human IgG1, kappa, L234A L235A, V domains shown, Humanized; also called VL1:VH5) VH: QEQLEESGGGLVKPGGTLSLTCTVSGPSLSHFDITWIRQAPGSGLEWIGTISPGVSTYYASWAKSRVTISVDTSLNTVSLKLSSVTAADTATYFCARGGVGSSWKAFDLWGPGTLVTISS VL: DIVMTQSPSSLSASVGDRVTITCQASESISTALAWYQQKPGKAPKLLIYKASTLPSGVPSRFSGSGSGTDFTLTISSLQPEDFATYYCQQGFSSGNVHNAFGGGTKVVIKR ... 0.0248
h48D2 VH2:VL2 (antibody, human IgG1, kappa, L234A L235A, V domains shown, Humanized; also called VL2:VH2) VH: EVQLVESGGALVQPGGSLRLSCIVSGPSLSHFDITWFRQAPGKGLEWVATISPGVSTYYASWAKSRFTISTDTSKNTLFLQMDSLRAEDTAVYYCARGGVGSSWKAFDLWGPGTLVTVSS VL: QIVLTQSPATLSASVGDRVTITCQASESISTALAWYQQKPGKAPKLLIYKASTLPSGVPSRFSGSGSGTEFTLTISSLQPDDSATYYCQQGFSSGNVHNAFGQGTKLEIKR ... 0.0261

// next entry
Ask: Any idea what IC50 was measured for h48D2 VH3:VL3 (antibody, human IgG1, kappa, L234A L235A, V domains shown, Humanized; also called VL3:VH3) VH: EVQLLESGGGLVLPGGSLRLSCAASGPSLSHFDITWVRQAPGKGLEWVSTISPGVSTYYASWAKSRFTISRDNSKNTLYLQMSSLRAEDTAVYYCARGGVGSSWKAFDLWGLGTTVTVSS VL: DILLTQTPSVVSASVGDRVTITCQASESISTALAWYQQKPGQAPRLLIYKASTLPSGVPSRFRGSGSGTDFTLTITSLQPEDFATYYCQQGFSSGNVHNAFGGGTRLEIKR ?
Result: 0.0281
